Counter-ions that a name gives are not always drawn.
Overview of recorded melting point for various molecules

Worked cases, melting point given:
- Molecule: "c1cc2c(cc1C1CCNCC1)CCC1(CCN(C3CCC3)CC1)O2"
  melting point: "88 to 90 °C"
- Molecule: "O=C(Nc1ccc2c(c1)COC1(CCN(C3CCC3)CC1)O2)c1cncs1"
  melting point: "222 to 224 °C"
- Molecule: "Cc1nnc(COc2ccc3c(c2)CCC2(CCN(C4CCC4)CC2)O3)o1"
  melting point: "97 to 98 °C"
- Molecule: "O=C(c1ccc(-c2ccc3c(c2)COC2(CCN(C4CCC4)CC2)O3)cc1)N1CCC[C@@H](O)C1"
  melting point: "85 to 87 °C"
- Molecule: "FC1(F)CCN(c2ccc3c(c2)COC2(CCN(C4CCC4)CC2)O3)CC1"
  melting point: "> 250 °C (dec.)"
- Molecule: "O=c1[nH]cccc1-c1ccc2c(c1)COC1(CCN(C3CCC3)CC1)O2"
  melting point: "167 to 169 °C"
- Molecule: "COCC(C)(C)NC(=O)c1ccc(-c2ccc3c(c2)COC2(CCN(C4CCC4)CC2)O3)cc1"
  melting point: "138 to 140 °C"
- Molecule: "CCSc1c[nH]c(=O)cc1-c1ccc2c(c1)COC1(CCN(C3CCC3)CC1)O2"
  melting point: "85 to 88 °C"

(Q) What value of measured melting point is listed for `COc1nc(C)ccc1-c1ccc2c(c1)COC1(CCN(C3CCC3)CC1)O2` ?
(A) 61 to 63 °C

(Q) What value of measured melting point is listed for `CCOC(=O)c1ccc(NC(=O)Nc2ccc3c(c2)COC2(CCN(C4CCC4)CC2)O3)cc1` ?
(A) 188 to 189 °C

(Q) What value of measured melting point is listed for `CCc1nnc(CCc2ccc3c(c2)COC2(CCN(C4CCC4)CC2)O3)o1` ?
(A) 98 to 100 °C

(Q) What value of measured melting point is listed for `CNC(=O)c1cc(-c2ccc3c(c2)COC2(CCN(C4CCC4)CC2)O3)ccc1Cl` ?
(A) 198 to 200 °C

(Q) What value of measured melting point is listed for `O=C(NCCO)c1c(F)cc(-c2ccc3c(c2)COC2(CCN(C4CCC4)CC2)O3)cc1F` ?
(A) 78.6 to 80.4 °C

(Q) What value of measured melting point is listed for c1cc2c(cc1OC1CCNCC1)CCC1(CCN(C3CCC3)CC1)O2 (as salt: HCl) ?
(A) > 320 °C

(Q) What value of measured melting point is listed for `O=C(NC[C@H]1CCCO1)c1ccc(-c2ccc3c(c2)COC2(CCN(C4CCC4)CC2)O3)cc1` ?
(A) 184 to 186 °C

(Q) What value of measured melting point is listed for OC1(c2ccc3c(c2)COC2(CCN(C4CCC4)CC2)O3)CCOC1 (centres unmarked) ?
(A) 50 °C

(Q) What value of measured melting point is listed for `NC(=O)c1ccc(-c2ccc3c(c2)COC2(CCN(C4CCC4)CC2)O3)cc1O` ?
(A) 267 to 269 °C
